# credit: patent US20100215579A1

# procedureDetails: Biodistribution in ICR mice after an iv injection
# Assay type: in vivo
# conditionLabel: Blood, 2 hr after iv injection
Known % dose/g of a selection of molecules
A complete answer gives the number and then names the unit.

Some solved entries appear below for comparison.
In [3]: df
Out[3]:
                                   molecule            testresult
0  CN(C)c1ccc(-c2ccc3nc(OCCOCCOCC[18F])ccc3c2)cc1 [[^18F]32a]  1.13 ± 0.15 % dose/g
1   CNc1ccc(-c2ccc3cc(OCCOCCOCCF)ccc3c2)cc1  2.22 ± 0.37 % dose/g
2  CNc1ccc2cc(-c3ccc(OCCOCCOCC[18F])cc3)ccc2c1 [[^18F]19a]  3.05 ± 0.26 % dose/g

The record that follows has no % dose/g shown yet.
# input Which % dose/g is reported for this molecule? CNc1ccc(-c2ccc3nc(OCCOCCOCC[18F])ccc3c2)cc1 [[^18F]34a]
# output 1.52 ± 0.23 % dose/g
